Target: NFE2L1 (Homo sapiens, UniProt Q14494)
Sequence (Q14494 654-717 limits assumed): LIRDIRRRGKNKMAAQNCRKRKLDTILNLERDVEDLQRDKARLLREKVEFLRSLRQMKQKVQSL
Assay: Direct-binding FRET assay
Design: made in house
Conditions: 4°C; N-terminal rhodamine design; mean or single; read-out: Kd
pKd: −log10 of the molar value. Where no end group is shown, it is not given here.
Item-by-item account of pKd

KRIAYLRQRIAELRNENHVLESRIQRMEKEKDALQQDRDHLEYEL [ATF5-d1]    < 6.00

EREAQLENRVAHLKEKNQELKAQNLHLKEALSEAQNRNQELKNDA [XBP1-d1] has a reported pKd of < 6.00

====

Target: NFE2L1 (Homo sapiens, UniProt Q14494)
Assay: Direct-binding FRET assay
Design: made in house
Settings: 4°C; N-terminal rhodamine design; repeat 2; read-out: Kd
Where no end group is shown, it is not given here.
measured_endpoint: Kd

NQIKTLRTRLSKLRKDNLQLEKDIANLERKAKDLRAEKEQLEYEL [ATF4-d1] has a reported Kd of > 1 µM
